molecular target: T1, rhesus CD117 ectodomain (rhesus, UniProt F6V858 26-524); test: BLI (Octet Red96), IgG on anti-human Fc sensors, rhesus CD117 ectodomain at 33.3 and 11 nM, 1:1 fit
T1 construct: extracellular domain
Measured koff of individual entries
Number in s⁻¹, nothing else.

Please review the following examples before continuing.
| BINDER | koff / s⁻¹ |
| --- | --- |
| Antibody 56 (antibody, human IgG1, kappa, V domains shown, also called Ab56; HC-56/LC-56) VH: QVQLVQSGAEVKKPGSSVKVSCKASGGTFSLYAISWVRQAPGQGLEWMGGIIPAFGTANYAQKFQGRVTITADESTSTAYMELSSLRSEDTAVYYCARGGLDTDEFDLWGRGTLVTVSS VL: DIQMTQSPSSLSASVGDRVTITCRASQSINSYLNWYQQKPGKAPKLLIYAASSLQSGVPSRFSGSGSGTDFTLTISSLQPEDFATYYCQQGVSDITFGGGTKVEIKR | 8.57e-05 |
| Antibody 55 (antibody, human IgG1, kappa, V domains shown, also called Ab55; HC-55/LC-55) VH: QVQLVQSGAEVKKPGSSVKVSCKASGGTFRIYAISWVRQAPGQGLEWMGGIIPDFGVANYAQKFQGRVTITADESTSTAYMELSSLRSEDTAVYYCARGGLDTDEFDLWGRGTLVTVSS VL: DIQMTQSPSSLSASVGDRVTITCRASQSINSYLNWYQQKPGKAPKLLIYAASSLQSGVPSRFSGSGSGTDFTLTISSLQPEDFATYYCQQGVSDITFGGGTKVEIKR | 8.96e-05 |

Here is another binder to look at.
Form: binder = Antibody 54 (antibody, human IgG1, kappa, V domains shown, also called Ab54; HC-54/LC-54) VH: QVQLVQSGAEVKKPGSSVKVSCKASGGTFSSYAISWVRQAPGQGLEWMGGIIPIFGTANYAQKFQGRVTITADESTSTAYMELSSLRSEDTAVYYCARGGLDTDEFDLWGRGTLVTVSS VL: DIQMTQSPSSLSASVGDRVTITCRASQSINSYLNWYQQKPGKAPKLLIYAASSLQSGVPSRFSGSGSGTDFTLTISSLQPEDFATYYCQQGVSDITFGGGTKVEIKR ; koff = 0.000793
